The listing below reports IC50 for molecules tested on UniProt P63086.
Sequence (P63086 whole entry): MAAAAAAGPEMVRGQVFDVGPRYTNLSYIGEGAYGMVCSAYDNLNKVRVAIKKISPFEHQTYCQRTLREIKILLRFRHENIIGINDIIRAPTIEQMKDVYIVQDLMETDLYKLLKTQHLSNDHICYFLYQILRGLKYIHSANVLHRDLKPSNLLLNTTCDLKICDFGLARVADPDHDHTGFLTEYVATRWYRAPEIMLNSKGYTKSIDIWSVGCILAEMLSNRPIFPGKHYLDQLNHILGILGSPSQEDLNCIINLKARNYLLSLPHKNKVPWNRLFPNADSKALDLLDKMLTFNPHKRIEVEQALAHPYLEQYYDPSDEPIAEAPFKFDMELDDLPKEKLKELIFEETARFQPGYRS

Here is how some molecules turned out for IC50.
[[record]]
smiles_string = "Clc1cccc(Nc2cncc(-c3cncc(NCCCc4cccnc4)c3)n2)c1"
value_measured = "> 100 µM"

[[record]]
smiles_string = "Clc1cccc(Nc2cncc(-c3cncc(NCCCN4CCCCC4)c3)n2)c1"
value_measured = "> 100 µM"

[[record]]
smiles_string = "O=C(NCCCO)c1cncc(-c2cncc(Nc3cccc(Cl)c3)n2)c1"
value_measured = "> 100 µM"

[[record]]
smiles_string = "CN(C)CCCNc1cncc(-c2cncc(Nc3cccc(Cl)c3)n2)c1"
value_measured = "> 100 µM"


Now for a further molecule.
Lookup: I am curious: what IC50 value has been reported for `Clc1cccc(Nc2cncc(-c3cncc(NCCCc4ccncc4)c3)n2)c1` ?
Found: > 100 µM

----------
- target: VEGF-R (vascular endothelial growth factor receptor-2) (Rattus norvegicus, UniProt O08775)
- Construct: polyhistidine (6xHis) (N)
- Sequence (O08775 786-1343): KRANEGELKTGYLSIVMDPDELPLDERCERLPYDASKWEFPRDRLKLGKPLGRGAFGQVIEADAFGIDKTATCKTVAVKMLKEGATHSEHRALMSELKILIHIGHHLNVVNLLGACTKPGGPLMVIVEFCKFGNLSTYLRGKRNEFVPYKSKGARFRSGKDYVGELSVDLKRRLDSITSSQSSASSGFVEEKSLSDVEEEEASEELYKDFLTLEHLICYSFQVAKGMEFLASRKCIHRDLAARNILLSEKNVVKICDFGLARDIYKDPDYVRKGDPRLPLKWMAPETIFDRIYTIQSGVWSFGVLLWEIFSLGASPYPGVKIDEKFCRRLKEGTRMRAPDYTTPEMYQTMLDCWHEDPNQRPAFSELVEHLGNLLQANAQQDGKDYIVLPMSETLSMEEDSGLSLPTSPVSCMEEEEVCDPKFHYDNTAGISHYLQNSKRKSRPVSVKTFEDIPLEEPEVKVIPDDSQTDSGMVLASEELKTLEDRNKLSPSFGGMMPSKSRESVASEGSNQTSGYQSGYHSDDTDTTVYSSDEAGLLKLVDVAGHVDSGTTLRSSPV
- assay text: VEGF-R screening assay (33P FlashPlate kinase assay)
- Assay type: biochemical
- settings: Table 4 kinase selectivity; read-out: IC50, Assay 1 VEGF-R
Measured IC50 accompanies every entry in the list below.
I'd appreciate it if you included the unit after the number.

Lookup: I am curious: what IC50 value has been reported for `Clc1cccc(Nc2cncc(-c3cncc(NCCCc4ccncc4)c3)n2)c1` ?
Found: 52 nM

Lookup: I am curious: what IC50 value has been reported for `Clc1cccc(Nc2cncc(-c3cncc(NCCCc4cccnc4)c3)n2)c1` ?
Found: 89 nM

Lookup: I am curious: what IC50 value has been reported for `Clc1cccc(Nc2cncc(-c3cncc(NCCCN4CCCCC4)c3)n2)c1` ?
Found: 105 nM

Lookup: I am curious: what IC50 value has been reported for `Clc1cccc(Nc2cncc(-c3cncc(NCCCn4ccnc4)c3)n2)c1` ?
Found: 30 nM

Lookup: I am curious: what IC50 value has been reported for `Clc1cccc(Nc2cncc(-c3cncc(NCCCn4cncn4)c3)n2)c1` ?
Found: 52 nM

Lookup: I am curious: what IC50 value has been reported for `CCOC(=O)CCCNc1cncc(-c2cncc(Nc3cccc(Cl)c3)n2)c1` ?
Found: 125 nM

Lookup: I am curious: what IC50 value has been reported for `COCCOCCNc1cncc(-c2cncc(Nc3cccc(Cl)c3)n2)c1` ?
Found: 85 nM

Lookup: I am curious: what IC50 value has been reported for `CN(C)CCCNc1cncc(-c2cncc(Nc3cccc(Cl)c3)n2)c1` ?
Found: 94 nM

Lookup: I am curious: what IC50 value has been reported for `Clc1cccc(Nc2cncc(-c3cncc(NCCCn4cccn4)c3)n2)c1` ?
Found: 79 nM

Lookup: I am curious: what IC50 value has been reported for `CN(C)CCNc1cncc(-c2cncc(Nc3cccc(Cl)c3)n2)c1` ?
Found: 70 nM

Lookup: I am curious: what IC50 value has been reported for `OCCCNc1cncc(-c2cncc(Nc3cccc(Cl)c3)n2)c1` ?
Found: 42 nM

Lookup: I am curious: what IC50 value has been reported for `OCCCCNc1cncc(-c2cncc(Nc3cccc(Cl)c3)n2)c1` ?
Found: 59 nM

Lookup: I am curious: what IC50 value has been reported for `O=C(NCCCO)c1cncc(-c2cncc(Nc3cccc(Cl)c3)n2)c1` ?
Found: 2500 nM

----------
- target: Calmodulin Kinase (calmodulin-dependent protein kinase 2) (Rattus norvegicus, UniProt P11275)
- Construct: a truncated version of the alpha subunit of the rat protein
- Sequence (P11275 1-325): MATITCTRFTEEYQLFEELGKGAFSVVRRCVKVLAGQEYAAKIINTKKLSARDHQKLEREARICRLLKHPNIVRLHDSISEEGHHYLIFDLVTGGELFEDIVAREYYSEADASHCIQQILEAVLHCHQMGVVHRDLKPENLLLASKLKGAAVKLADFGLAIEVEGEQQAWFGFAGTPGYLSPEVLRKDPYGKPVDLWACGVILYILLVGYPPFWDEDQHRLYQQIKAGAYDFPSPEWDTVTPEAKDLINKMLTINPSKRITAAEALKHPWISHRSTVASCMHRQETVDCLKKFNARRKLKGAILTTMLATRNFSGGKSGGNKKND
- assay text: Calmodulin Kinase selectivity assay
- settings: Table 4 kinase selectivity; read-out: IC50, Assay 10 Calmodulin Kinase
Measured pIC50 accompanies every entry in the list below.
pIC50 field: float, defined as -log10 of concentration (mol/L).

Here is how some compounds turned out for pIC50.
[[record]]
smiles_string = "Clc1cccc(Nc2cncc(-c3cncc(NCCCn4cccn4)c3)n2)c1"
value_measured = 4.57

[[record]]
smiles_string = "Clc1cccc(Nc2cncc(-c3cncc(NCCCn4cncn4)c3)n2)c1"
value_measured = 4.80

[[record]]
smiles_string = "Clc1cccc(Nc2cncc(-c3cncc(NCCCN4CCCCC4)c3)n2)c1"
value_measured = 5.12


Lookup: I am curious: what pIC50 value has been reported for `Clc1cccc(Nc2cncc(-c3cncc(NCCCc4ccncc4)c3)n2)c1` ?
Found: 5.31
